biological target: HLA-B*5401 (human); test: competition with 125I probe peptide, purified HLA
pIC50: −log10 of the molar value.
reported metric: pIC50

>>> print(df.to_string())
                                     binder  reported_metric   val
0  FPLNNTTPV (analog peptide) [Her2/neu.121.F1]            pIC50  8.96
1  FPCARVCYGL (analog peptide) [Her2/neu.336.F1]            pIC50  7.44
2  FPDLSYMPI (analog peptide) [Her2/neu.605.F1]            pIC50  7.51
3  FPTNASLSFI (analog peptide) [Her2/neu.65.F1I10]            pIC50  7.28
